# System Under Test: T1, mouse GLP-1 receptor endogenously expressed in βTC6 cells (mouse, UniProt O35659 22-463)
# T1 sequence (looked up): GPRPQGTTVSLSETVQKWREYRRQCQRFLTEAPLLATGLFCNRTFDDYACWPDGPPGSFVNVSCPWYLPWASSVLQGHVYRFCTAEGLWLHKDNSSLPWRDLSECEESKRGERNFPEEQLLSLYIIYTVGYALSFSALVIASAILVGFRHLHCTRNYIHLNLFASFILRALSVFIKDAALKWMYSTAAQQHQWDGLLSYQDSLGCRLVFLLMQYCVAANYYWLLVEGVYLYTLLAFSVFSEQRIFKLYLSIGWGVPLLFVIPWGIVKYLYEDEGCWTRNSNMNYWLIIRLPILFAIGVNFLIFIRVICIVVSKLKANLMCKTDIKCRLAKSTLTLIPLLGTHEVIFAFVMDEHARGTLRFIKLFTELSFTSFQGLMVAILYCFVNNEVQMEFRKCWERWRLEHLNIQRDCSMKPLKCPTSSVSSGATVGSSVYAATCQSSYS
# Test Method Notes: cell-based or functional assay
Numbered stars: 1 amine (or outer) side, 2 acyl side, 3 side chain; on linkers, the order of the positions; unused ones are H or OH. Square brackets hold non-standard residues; d marks the D form. Ends that are not written are not given here. Au = A^u, ureido (oligourea) alanine residue, C[C@@H](CNC(=O)[*:2])N[*:1]
Quantity: EC50 (nM), cAMP production functional assay
Your answer should be a plain number; it is taken to be in nM.

Data point: H-HGEGTFTSD[Au][Au][Au]LEGQAAKEFIAWLVKGRG-NH2 (also: oligourea (urea) backbone at A^u units) [GG2[A^UA^UA^U]^10-13] ; EC50 (nM), cAMP production functional assay = 650

Data point: H-HGEGTFTSDVSSYLE[Au][Au][Au]KEFIAWLVKGRG-NH2 (also: oligourea (urea) backbone at A^u units) [GG2[A^UA^UA^U]^16-19] ; EC50 (nM), cAMP production functional assay = 240

Data point: HGEGTFTSDV[Au][Au][Au]EGQAAKEFIAWLVKGRG-NH2 (also: oligourea (urea) backbone at A^u units) [GG2[A^UA^UA^U]^11-14] ; EC50 (nM), cAMP production functional assay = 97

Data point: H-HGEGTFTSDVSSYL[Au][Au][Au]AKEFIAWLVKGRG-NH2 (also: oligourea (urea) backbone at A^u units) [GG2[A^UA^UA^U]^15-18] ; EC50 (nM), cAMP production functional assay = 123

Data point: H-HGEGTFTSDVSSYLEGQAAKEFIAWLVKGRG-NH2 [GLP-1-G^2 (GG2)] ; EC50 (nM), cAMP production functional assay = 0.24
